The reported numbers originate from patent EP4745134A1.

Reported Selectivity HCT 116-WT/ HCT116 MTAP KO is given for each of the following compounds.
Test system: HCT116 MTAP KO cells
Assay: Inhibitory activity against cell proliferation (CellTiter Glo, 6 days), HCT116 MTAP KO
Format: cell-based
Conditions: ratio of IC50 HCT116-WT / HCT116 MTAP KO
Reply with just the number.

Would you please look over these solved cases?
# compound, target-or-test-system, Selectivity HCT 116-WT/ HCT116 MTAP KO
rows = [
    ("Cc1cc2cc(C(=O)N(Cc3ccc(C(F)(F)F)cn3)N(C)c3ncccc3F)ccc2nc1N", "HCT116 MTAP KO cells", 20.29),
    ("Cc1cc2nc(N)c3cnn(C)c3c2cc1C(=O)N1CC(CC(F)(F)F)CN1c1ncccc1F (stereo not drawn)", "HCT116 MTAP KO cells", 20.30),
    ("Cc1ncsc1-c1ccc(CN(C(=O)c2ccc3nc(N)c(Br)cc3c2)N(c2ncccn2)C2CC2)nc1", "HCT116 MTAP KO cells", 14.47),
    ("Cc1cc2nc(N)c3cnn(C)c3c2cc1C(=O)N1C[C@H](C)CN1c1ncccc1F (single isomer, unassigned)", "HCT116 MTAP KO cells", 45.35),
    ("Cn1ncc2c(N)nc3cc(Cl)c(C(=O)N4CC(C)(F)CN4c4ncccc4F)cc3c21 (stereo not drawn)", "HCT116 MTAP KO cells", 15.74),
    ("Cc1cc2nc(N)c3cnn(C)c3c2cc1C(=O)N1CC(C)(C)CN1c1ncccc1F", "HCT116 MTAP KO cells", 25.13),
    ("Cc1cc2cc(C(=O)N(Cc3ccc(-c4scnc4C#N)cn3)N(C)c3ncccn3)ccc2nc1N", "HCT116 MTAP KO cells", 22.77),
    ("Cc1cc2cc(C(=O)N(Cc3ccc(-c4ccc(N(C)CCO)nc4)cn3)N(C)c3ncccn3)ccc2nc1N", "HCT116 MTAP KO cells", 26.78),
    ("CCOc1ccc(N2CC(C)CN2C(=O)c2cc3c(cc2C)nc(N)c2cnn(C)c23)nn1 (stereo not drawn)", "HCT116 MTAP KO cells", 36.22),
    ("[2H]C([2H])([2H])n1ncc2c(N)nc3cc(Cl)c(C(=O)N4CC(C)CN4c4ncccc4F)cc3c21 (stereo not drawn)", "HCT116 MTAP KO cells", 23.78),
]

Return reported Selectivity HCT 116-WT/ HCT116 MTAP KO; argument: Cc1cc2cc(C(=O)N(Cc3ccc(C#N)cn3)N(C)c3ncccn3)ccc2nc1N
23.60

Return reported Selectivity HCT 116-WT/ HCT116 MTAP KO; argument: Cc1cc2cc(C(=O)N(Cc3ccc4sc(C5CCN(C)CC5)nc4c3)N(C)c3ncccn3)ccc2nc1N
14.53

Return reported Selectivity HCT 116-WT/ HCT116 MTAP KO; argument: Cc1cc2cc(C(=O)N(Cc3ccc(C(C)O)cn3)N(C)c3ncccn3)ccc2nc1N (stereo not drawn)
12.38

Return reported Selectivity HCT 116-WT/ HCT116 MTAP KO; argument: Cc1cc2nc(N)c3cnn(C)c3c2cc1C(=O)N1CC(C)CN1c1ncc(Cl)cc1F (stereo not drawn)
44.81

Return reported Selectivity HCT 116-WT/ HCT116 MTAP KO; argument: Cc1cc2cc(C(=O)N(Cc3c(F)cc(Br)cc3F)N(C)c3ncccn3)ccc2nc1N
14.11

Return reported Selectivity HCT 116-WT/ HCT116 MTAP KO; argument: Cc1cc2cc(C(=O)N(Cc3ccc(-c4cnn(C(F)(F)F)c4)cn3)N(c3ncccn3)C3CC3)ccc2nc1N
27.26

Return reported Selectivity HCT 116-WT/ HCT116 MTAP KO; argument: Cc1cc2cc(C(=O)N(Cc3ccc(-c4ccc(C#N)nc4)cn3)N(C)c3ncccn3)ccc2nc1N
12.77

Return reported Selectivity HCT 116-WT/ HCT116 MTAP KO; argument: C#Cc1cnc(N2CC(C)CN2C(=O)c2cc3c(cc2C)nc(N)c2cnn(C)c23)c(F)c1 (stereo not drawn)
34.62

Return reported Selectivity HCT 116-WT/ HCT116 MTAP KO; argument: Cc1cc2nc(N)c3cnn(C)c3c2cc1C(=O)N1CC(C)CN1c1cccc(C2CC2)n1 (stereo not drawn)
31.93

Return reported Selectivity HCT 116-WT/ HCT116 MTAP KO; argument: Nc1nc2ccc(C(=O)N(Cc3ccc(C(F)(F)F)cn3)N(c3ncccn3)C3CC3)cc2cc1Br
13.74

Return reported Selectivity HCT 116-WT/ HCT116 MTAP KO; argument: [2H]C([2H])([2H])N(c1nccc2nccnc12)N(Cc1ccc(Br)cn1)C(=O)c1ccc2nc(N)c(C)cc2c1
19.02

Return reported Selectivity HCT 116-WT/ HCT116 MTAP KO; argument: [2H]C([2H])([2H])c1cc2cc(C(=O)N(Cc3ccc(C(F)(F)F)cn3)N(C)c3ncccn3)ccc2nc1N
34.09

Return reported Selectivity HCT 116-WT/ HCT116 MTAP KO; argument: Cc1cc2cc(C(=O)N(Cc3ccc(C(F)(F)F)cn3)N(C)c3ncc(Cl)cn3)ccc2nc1N
14.63

Return reported Selectivity HCT 116-WT/ HCT116 MTAP KO; argument: [2H]c1nc(C)c(-c2ccc(CN(C(=O)c3ccc4nc(N)c(C)cc4c3)N(c3ncccn3)C3CC3)nc2)s1
21.96

Return reported Selectivity HCT 116-WT/ HCT116 MTAP KO; argument: Cc1cc2cc(C(=O)N(Cc3ncc(Br)cc3F)N(C)c3ncccn3)ccc2nc1N
24.23

Return reported Selectivity HCT 116-WT/ HCT116 MTAP KO; argument: Cc1cc2nc(N)c3cnn(C)c3c2cc1C(=O)N1CC(C)CN1c1ncc(-c2cnc3c(cnn3C)c2)cc1F (stereo not drawn)
39.66

Return reported Selectivity HCT 116-WT/ HCT116 MTAP KO; argument: Cc1cc2cc(C(=O)N(Cc3ccc(-c4cnn(C(C)C)c4)cn3)N(C)c3ncccn3)ccc2nc1N
25.65

Return reported Selectivity HCT 116-WT/ HCT116 MTAP KO; argument: Cc1cc2cc(C(=O)N(Cc3ccc(Br)cc3F)N(C)c3nccc4nccnc34)ccc2nc1N
17.50

Return reported Selectivity HCT 116-WT/ HCT116 MTAP KO; argument: Cc1cc2cc(C(=O)N(Cc3ccc(-c4cccnc4)cn3)N(C)c3ncccn3)ccc2nc1N
73.08
